We begin with a simple list: items and their reported shrunken log2 fold change.
test system: Escherichia coli TOP10; test: shrunken log2 fold change of peptide-encoding DNA abundance (4.5 h post-induction vs induction); higher = less antimicrobial activity (less host growth inhibition); details: time post-induction: 4.5 h; library: site-saturation at positions 5, 18, 19, 20;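 note: peptides expressed intracellularly from a pBAD plasmid library in pooled LB shake-flask culture, induced with 0.3% L-arabinose, DNA abundance read by NGS, three biological replicates, DESeq2 with apeglm shrinkage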

RRIRERPPRLPRPRPRPFRIPRP; -0.367
RRIRMRPPRLPRPRPRPMWTPRP; 0.038

Could you share which shrunken log2 fold change value was measured for `RRIRPRPPRLPRPRPRPHSAPRP` ?
0.31

Could you share which shrunken log2 fold change value was measured for `RRIRGRPPRLPRPRPRPVTHPRP` ?
0.106

Could you share which shrunken log2 fold change value was measured for `RRIRERPPRLPRPRPRPYRQPRP` ?
-0.264

Could you share which shrunken log2 fold change value was measured for `RRIRVRPPRLPRPRPRPCCEPRP` ?
-0.0815

Could you share which shrunken log2 fold change value was measured for `RRIRMRPPRLPRPRPRPLVMPRP` ?
0.0504

Could you share which shrunken log2 fold change value was measured for `RRIRNRPPRLPRPRPRPAKVPRP` ?
-0.0027

Could you share which shrunken log2 fold change value was measured for `RRIRDRPPRLPRPRPRPCSDPRP` ?
0.0293

Could you share which shrunken log2 fold change value was measured for `RRIRPRPPRLPRPRPRPLCPPRP` ?
-0.128

Could you share which shrunken log2 fold change value was measured for `RRIRERPPRLPRPRPRPMCCPRP` ?
-0.113

Could you share which shrunken log2 fold change value was measured for `RRIRWRPPRLPRPRPRPHAMPRP` ?
0.00797

Could you share which shrunken log2 fold change value was measured for `RRIRIRPPRLPRPRPRPTMQPRP` ?
0.0261

Could you share which shrunken log2 fold change value was measured for `RRIRMRPPRLPRPRPRPGWLPRP` ?
0.533

Could you share which shrunken log2 fold change value was measured for `RRIRKRPPRLPRPRPRPIVSPRP` ?
-0.0354

The values you see were collected from the supplement of paper PMC9112550.
